- test system: PRMT5/MEP50 (Homo sapiens (Human), UniProt O14744)
- Sequence (O14744 other isoform, or with tags, fused parts or gaps): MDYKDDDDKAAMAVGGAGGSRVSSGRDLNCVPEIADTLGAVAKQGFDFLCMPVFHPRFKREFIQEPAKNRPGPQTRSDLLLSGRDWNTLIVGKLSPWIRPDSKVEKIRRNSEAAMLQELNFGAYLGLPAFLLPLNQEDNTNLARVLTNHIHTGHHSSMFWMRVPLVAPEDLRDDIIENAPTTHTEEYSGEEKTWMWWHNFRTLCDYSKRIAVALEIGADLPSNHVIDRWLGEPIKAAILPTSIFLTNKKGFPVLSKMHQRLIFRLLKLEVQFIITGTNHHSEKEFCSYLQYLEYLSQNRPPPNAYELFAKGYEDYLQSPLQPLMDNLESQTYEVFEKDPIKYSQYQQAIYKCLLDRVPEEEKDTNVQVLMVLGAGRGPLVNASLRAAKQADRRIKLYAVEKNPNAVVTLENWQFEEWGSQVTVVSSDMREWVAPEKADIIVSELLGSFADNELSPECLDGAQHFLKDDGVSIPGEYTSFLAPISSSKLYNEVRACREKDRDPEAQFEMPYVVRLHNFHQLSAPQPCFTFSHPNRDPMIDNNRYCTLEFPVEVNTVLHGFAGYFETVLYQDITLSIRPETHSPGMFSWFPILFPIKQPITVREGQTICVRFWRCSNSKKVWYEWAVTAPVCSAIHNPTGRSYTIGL
- Sequence (Q9BQA1 other isoform, or with tags, fused parts or gaps partner): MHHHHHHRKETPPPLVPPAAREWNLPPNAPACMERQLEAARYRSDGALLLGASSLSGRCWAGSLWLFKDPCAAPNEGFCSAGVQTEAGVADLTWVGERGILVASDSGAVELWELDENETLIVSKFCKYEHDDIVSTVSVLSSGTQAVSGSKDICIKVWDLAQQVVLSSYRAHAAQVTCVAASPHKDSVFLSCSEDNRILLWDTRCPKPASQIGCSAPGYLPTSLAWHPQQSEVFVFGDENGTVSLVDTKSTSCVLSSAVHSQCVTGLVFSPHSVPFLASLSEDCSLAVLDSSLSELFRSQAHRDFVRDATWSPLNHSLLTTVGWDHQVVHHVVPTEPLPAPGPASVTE
- procedure details: PRMT5 Biochemical Assay (PRMT5/MEP50 enzyme assay on peptide substrate, 3H-SAM Flashplate)
pIC50: −log10 of the molar value.
pIC50 values, listed per item

Consider the worked cases shown below.
In [3]: df
Out[3]:
                                   compound        result
0  CNCCOc1ccc2cc(C(=O)NC[C@H](O)CN3CCc4ccccc4C3)ccc2c1  6.00 to 7.00
1  CCN1CCC(Oc2ccc(C(=O)NC[C@H](O)CN3CCc4ccccc4C3)cc2)CC1        > 7.00
2  O=C(NC[C@H](O)CN1CCc2ccccc2C1)c1cc(NC2CCC2)nc(N2CCOCC2)c1        > 7.00
3  O=C(NC[C@H](O)CN1CCc2ccccc2C1)c1ccc(OCCN2CCOCC2)cc1        > 7.00
4  O=C(NC[C@H](O)CN1CCc2ccccc2C1)c1ccc(OCCN2CCCC2)cc1        > 7.00

Entry CCNCCCOc1ccc(C(=O)NC[C@H](O)CN2CCc3ccccc3C2)cc1 under PRMT5/MEP50 (Homo sapiens (Human), UniProt O14744) had pIC50 of > 7.00

Entry CS(=O)(=O)Nc1ccccc1C(=O)NCC(O)CN1CCc2ccccc2C1 (stereo not shown) under PRMT5/MEP50 (Homo sapiens (Human), UniProt O14744) had pIC50 of 5.00 to 6.00

Entry O=C(NC[C@H](O)CN1CCc2ccccc2C1)c1ccnc(Nc2cccnc2)c1 under PRMT5/MEP50 (Homo sapiens (Human), UniProt O14744) had pIC50 of > 7.00

Entry O=C(NC[C@H](O)CN1CCc2ccccc2C1)c1cncc(NC2COC2)n1 under PRMT5/MEP50 (Homo sapiens (Human), UniProt O14744) had pIC50 of 6.00 to 7.00

Entry O=C(NC[C@H](O)CN1CCc2ccccc2C1)c1cncc(OC2CCN(CC(F)(F)F)CC2)c1 under PRMT5/MEP50 (Homo sapiens (Human), UniProt O14744) had pIC50 of > 7.00

Entry CNCCOc1cccc(C(=O)NCC(O)CN2CCc3ccccc3C2)c1 (stereo not shown) under PRMT5/MEP50 (Homo sapiens (Human), UniProt O14744) had pIC50 of 6.00 to 7.00

* * *

IC50 values, listed per item
- test system: PRMT5/MEP50 (Homo sapiens (Human))
- procedure details: PRMT5 Biochemical Assay (PRMT5/MEP50 enzyme assay on peptide substrate, 3H-SAM Flashplate)
- condition info: PRMT5 biochemical assay

The measured IC50 associated with COc1nc(NC2COC2)cc(C(=O)NC[C@H](O)CN2CCc3ccccc3C2)n1 reads < 100 nM

The measured IC50 associated with O=C(NC[C@H](O)CN1CCc2ccccc2C1)C1=CC2=N[C@@H](CO)CN2C=N1 reads 101 to 1000 nM

The measured IC50 associated with O=C(NC[C@H](O)CN1CCc2ccccc2C1)c1cc(N[C@H]2C[C@@H](N3CCOCC3)C2)ncn1 reads < 100 nM

The measured IC50 associated with CC1c2ccccc2CCN1C[C@@H](O)CNC(=O)c1cc(NC2COC2)ncn1 (some centres unmarked) reads 101 to 1000 nM

* * *

- Test system: Z-138 cell line
- procedure details: Z-138 Proliferation Assay (Cell Titer Glo, 5 days)
- Assay type: cell-based
- condition info: Homo sapiens, 120 h; Z-138 cells, 5 days, Cell Titer Glo; read-out: Proliferation EC50
- Procedure: RPMI/Glutamax medium, penicillin-streptomycin, heat inactivated fetal bovine serum were purchased from Life Technologies, Grand Island, N.Y., USA. V-bottom polypropylene 384-well plates were purchased from Greiner Bio-One, Monroe, N.C., USA. […] SpectraMax M5 plate reader was purchased from Molecular Devices LLC, Sunnyvale, Calif., USA. […] Cell viability was measured by quantitation of ATP present in the cell cultures, adding […] of Cell Titer Glo® reagent to the cell plates. […]
EC50 values, listed per item

In [3]: df
Out[3]:
                                   molecule  measurement_label         result
0  CC(=O)[C@H]1CC[C@@H](Nc2cc(C(=O)NC[C@H](O)CN3CCc4ccccc4C3)ncn2)CC1               EC50       < 0.1 µM
1  O=C(NC[C@H](O)CN1CCc2ccccc2C1)c1cc(N[C@H]2C[C@@H](O)C2)ncn1               EC50  0.101 to 1 µM
2  O=C(NC[C@H](O)CN1CCc2ccccc2C1)c1ccnc(OCCNCC(F)(F)F)c1               EC50     1 to 10 µM
3  COC(CNC(=O)c1cc(NC2CCN(C(=O)C3CC3)CC2)ncn1)CN1CCc2ccccc2C1 (centres unmarked)               EC50         > 5 µM
4  CC(=O)N1CCC(Nc2cc(C(=O)NC[C@@H](O)CN3CCc4ccccc4C3)ncn2)CC1               EC50  0.101 to 1 µM
5  Cc1cc(Nc2cc(C(=O)NC[C@H](O)CN3CCc4ccccc4C3)ncn2)n[nH]1               EC50     1 to 10 µM
6  O=C(NC[C@H](O)CN1CCc2ccccc2C1)c1cc(NC2COC2)nc(N2CCN(C(=O)C3CC3)CC2)n1               EC50       < 0.1 µM

Alright, here's another molecule for you.
The measured EC50 associated with CC(=O)N1CCC(Nc2cc(C(=O)NC[C@H](O)CN3CCc4ccc(C)cc4C3)ncn2)CC1 reads 1 to 10 µM

* * *

EC50 values, listed per item
- Test system: Z-138 cell line
- procedure details: Z-138 Proliferation Assay (Cell Titer Glo, 5 days)
- Format: cell-based
- condition info: Homo sapiens, 120 h; Z-138 cells, 5 days, Cell Titer Glo; read-out: Proliferation EC50

Consider the worked cases shown below.
                                   compound  measurement_label         result
0  COC(CNC(=O)c1cc(NC2CCNCC2)ncn1)CN1CCc2ccccc2C1 (centres unmarked)               EC50         > 5 µM
1  NC(=O)CN1CCC(Nc2cc(C(=O)NC[C@H](O)CN3CCc4ccccc4C3)ncn2)CC1               EC50  0.101 to 1 µM
2  O=C(NC[C@H](O)CN1CCc2ccccc2C1)c1cc(NC2COC2)nc(N2CCNCC2)n1               EC50       < 0.1 µM
3  Cc1cnc(NC2CCNC2)cc1C(=O)NC[C@H](O)CN1CCc2ccccc2C1 (some centres unmarked)               EC50        > 20 µM
4  N[C@H]1CC[C@H](Nc2cc(C(=O)NC[C@H](O)CN3CCc4ccccc4C3)ncn2)CC1               EC50         > 5 µM

The measured EC50 associated with CC(=O)N1CC(Nc2cc(C(=O)NC[C@H](O)CN3CCc4ccccc4C3)nc(N3CCN(C)CC3)n2)C1 reads 0.101 to 1 µM

The measured EC50 associated with COC(CNC(=O)c1cc(NC2CCN(C)CC2)ncn1)CN1CCc2ccccc2C1 (centres unmarked) reads > 5 µM

The measured EC50 associated with CC(=O)N1CC[C@@H](Nc2cc(C(=O)NC[C@H](O)CN3CCc4ccccc4C3)ncn2)C1 reads 0.101 to 1 µM

* * *

pEC50 values, listed per item
- System: Z-138 cell line
- procedure details: Z-138 Proliferation Assay (Cell Titer Glo, 5 days)
- Type: cell-based
- condition info: Homo sapiens, 120 h; Z-138 cells, 5 days, Cell Titer Glo; read-out: Proliferation EC50
pEC50: −log10 of the molar value.

The measured pEC50 associated with CO[C@H]1CC[C@H](Nc2cc(C(=O)NC[C@H](O)CN3CCc4ccccc4C3)ncn2)CC1 [Compound 586] reads > 7.00

The measured pEC50 associated with O=C(NC[C@H](O)CN1CCc2ccccc2C1)c1cc(NC2COC2)nc(C2CC2)n1 [Compound 480] reads 6.00 to 7.00

The measured pEC50 associated with O=C(NC[C@H](O)CN1CCc2ccccc2C1)c1cc(N[C@H]2C[C@@H](C(=O)N3CCCCC3)C2)ncn1 [Compound 519] reads 6.00 to 7.00

The measured pEC50 associated with Cc1nc(NC2COC2)cc(C(=O)NC[C@H](O)CN2CCc3ccccc3C2)n1 [Compound 399] reads 5.00 to 6.00

The measured pEC50 associated with CS(=O)(=O)CCNc1cc(C(=O)NC[C@H](O)CN2CCc3ccccc3C2)ncn1 [Compound 555] reads 5.00 to 6.00

The measured pEC50 associated with CC(=O)N1CC(Nc2cc(C(=O)NCC(O)C(C)N3CCc4ccccc4C3)ncn2)C1 (centres unmarked) [Compound 608] reads < 5.30

The measured pEC50 associated with CNCCOc1cc(C(=O)NC[C@H](O)CN2CCc3ccccc3C2)ccn1 [Compound 420] reads 5.00 to 6.00

The measured pEC50 associated with CN(C)C(=O)[C@H]1C[C@H](Nc2cc(C(=O)NC[C@H](O)CN3CCc4ccccc4C3)ncn2)C1 [Compound 507] reads 6.00 to 7.00
